- system.under.test: T1, LILRB2-ECD-HIS (SinoBiological Cat #: 14132-H02H) (human, UniProt Q8N423 22-460)
- T1 construct: Bought protein; also called monomeric antigen LILRB2-ECD-HIS; not shown: His tag
- protocol: SPR (Carterra LSA), antibody captured, antigen injected;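 also: kd obtained from kinetic analysis of antibody binding to the antigen, with association and dissociation phases fitted in the instrument software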
Overview of recorded Kd for various binders
Record the value in nM, omitting the unit from your answer.

Answered cases to consult:
binder="#36 (antibody, human IgG1, V domains shown, also called D2M002-036) VH: QVQLQQSGAELMKPGASVRISCKATGYTFSSSWIEWVKQRPGHGLEWIGEILPGSGTTNYNEKFKGKATFTADTSSNTAYMQLSSLTSEDSAVYYCARSGAGGYDSGAFTYWGQGTLVTVSA VL: DIVLTQSPASLAVSLGQRATISCRASESIDTYGNSFMHWYQQKPGQPPKLLIYRASNLESGIPARFSGSGSRTDFTLTINPVEADDVATYYCQQSNEDPWTFGGGTKLEIK" property_label=Kd value_observed=0.145
binder="#8 (antibody, human IgG1, V domains shown, also called D2M002-008) VH: EVQLQQPGAELMKPGASVKISCKATGYTFSSSWTEWVKQRPGHGLEWIGEILPGSGSTNYNEKFKGKATFTADTSSNTAYMQLSSLTSEDSAVYYCARSGAGGYDSGAFAYWGQGTLVTVSA VL: DIVLTQSPASLAVSLGQRATISCRASESIDTYGNSFMHWYQQKPGQPPKLLIYRTSNLESGIPARFSGSGSRTDFTLTINPVEADDVATYYCQQSNEDPWTFGGGTKLEIK" property_label=Kd value_observed=0.191
binder="D2M002-002 (antibody, V domains shown, Hit from immunised mice; also called clone #2; anti-LILRB1/2 clone #2) VH: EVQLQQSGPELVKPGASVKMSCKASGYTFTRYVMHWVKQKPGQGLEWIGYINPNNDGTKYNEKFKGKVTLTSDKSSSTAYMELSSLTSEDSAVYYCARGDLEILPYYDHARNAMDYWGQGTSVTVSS VL: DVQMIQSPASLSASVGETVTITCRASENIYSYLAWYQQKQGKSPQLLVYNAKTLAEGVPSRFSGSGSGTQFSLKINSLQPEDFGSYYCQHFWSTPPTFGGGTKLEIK" property_label=Kd value_observed=1.57
binder="D2M002-026 (antibody, V domains shown, Hit; also called clone #26) VH: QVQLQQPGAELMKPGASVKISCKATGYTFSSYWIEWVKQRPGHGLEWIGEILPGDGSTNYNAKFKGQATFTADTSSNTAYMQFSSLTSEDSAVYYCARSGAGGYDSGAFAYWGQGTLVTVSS VL: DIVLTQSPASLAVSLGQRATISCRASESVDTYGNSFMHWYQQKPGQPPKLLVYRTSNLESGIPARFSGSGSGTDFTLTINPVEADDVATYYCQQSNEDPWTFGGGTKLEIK" property_label=Kd value_observed=0.0286
binder="#45 (antibody, human IgG1, V domains shown, also called D2M002-045) VH: QIQLLQSGPELKKPGETVKISCKASGYTFTDYSMHWVKQAPGKGLKWMGWINTETGEPTYADDFKGRFAFSLETSASTAYLQINNLKNEDTATYFCARVVRRGYFDVWGAGTTVTVSS VL: DIQMTQSPASLSASVGETVTITCRASGNIHNYLAWYQQKQGKSPQVLVYNAKTLADGVPSRFSGSGSGTQYSLKINSLQPEDFGSYYCQHFWSTPFTFGSGTKLEIK" property_label=Kd value_observed=1000

// sample #12 (antibody, human IgG1, V domains shown, also called D2M002-012) VH: QIQLLQSGAELMKPGASVKISCKATGYTFSNYWIEWVKQRPGHGLEWIGEILPGSGSTNYNEKFKGKATFTADTSSNTAYMQLSSLTSEDSAVYYCARSGAGGYDSGAFAYWGQGTLVTVSS VL: DIVLTQSPASLAVSLGQRATISCRASESVDSYGNSFMHWYQQKPGQPPKLLIYRTSNLESGIPARFSGSGSRTDFTLTINPVEADDVAAYYCQQSNEDPWTFGGGTKLEIK , its Kd was 0.2

Per the record, #22 (antibody, human IgG1, V domains shown, also called D2M002-022) VH: QVQLQQSGAELMKPGASVKISCKATGYTLSSYWIEWVKQRPGHGLEWIGEILPGSGSTNYNEKFKGKATFTADTSSNTAYMQLSSLTSEDSAVYYCARSGAGGYDSGAFAYWGQGTLVTVSA VL: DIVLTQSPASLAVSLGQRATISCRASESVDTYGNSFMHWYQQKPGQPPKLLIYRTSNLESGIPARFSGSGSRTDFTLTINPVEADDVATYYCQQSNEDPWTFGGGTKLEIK has Kd of 0.0323

Please fill in: Kd reported for D2M002-044 (antibody, human IgG1, V domains shown, Hit; also called clone #44) VH: EVQLQQSGAELVRPGALVKLSCKGSGFNIKDYYMHWVRQRPEQGLEWIGWIDPENGNTVYAPKFQGKASITSDTSSNIAYLQFSSLTSEDTAVYYCARSRDHGAMDYWGQGTSVTVSS VL: DVQITQSPAIMSASPGEKVTLTCSASSSVSSSNLYWYQQKPGSSPKLWIYSTSNLASGVPARFSGSGFGTSYALTISSMEAEDAASYFCHQWSSYPYTFGGGTKLEIK = 4.85

The recorded Kd for entry D2M002-004 (antibody, human IgG1, V domains shown, Hit; also called clone #4) VH: EVQLQQSGAELVRPGALVKLSCKASGFNIKDYYMHWVKQRPEQGLEWIGWIDPESGNTIYDPKFQGKASMTADTSSNTAYLQLSSLTSEDTAVYYCARLDGSSYYAMDYWGQGTSVTVSS VL: DILLTQSPASLAVSLGQRATISCRASESVDSYGNSFMHWYQQKPGQPPKLLIYLASNLESGVPARFSGSGSRTDFTLTIDPVEADDAATYYCQQNNEDPLTFGAGTKLELK equals 1000

The measured Kd associated with #28 (antibody, human IgG1, V domains shown, also called D2M002-028) VH: EVQLQQSGAELMKPGASVKISCKATGYTFSSYWIEWVKQRPGHGLEWIGEILPGSGSTNYNEKFKGKATFTADTSSNTAYMQLSSLTSEDSAVYYCARSGAGGYDSGAFAYWGQGTLVTVSS VL: DIVMTQSPASLAVSLGQRATISCRASESVDTYGNSFMHWYQQKPGQPPKLLIYRTSNLESGIPARFSGSGSRTDFTLTINPVEADDVATYYCQQSNEDPWTFGGGTKLEIK reads 0.0385
